The measurements presented in this section are drawn from PubChem BioAssay (NCI).

system: ACHN renal; assay: NCI tumour cell line growth inhibition, 48 h
quantityMeasured: TGI

Some entries whose results are on file:
[
  {
    "molecule": "COC(=O)Nc1nc2ccc(C(=O)c3cccc(I)c3)cc2[nH]1",
    "TGI": "21.1 µM"
  },
  {
    "molecule": "CN(C(=O)C(C)(C)C)c1ccccc1I(=O)=O",
    "TGI": "> 100 µM"
  },
  {
    "molecule": "c1ccc2c(N=NSc3ncnc4nc[nH]c34)c3ccccc3nc2c1",
    "TGI": "7.03 µM"
  },
  {
    "molecule": "O=C(CC12C3C4C1C1C2C3C41CC(=O)NO)NO (configuration not stated)",
    "TGI": "> 100 µM"
  },
  {
    "molecule": "Cc1ccc(/C=C2\\CCCCC2=O)cc1",
    "TGI": "> 100 µM"
  },
  {
    "molecule": "O=C1c2ccccc2C(=O)N1CC#CCO",
    "TGI": "> 100 µM"
  }
]

Hi! Can you tell me TGI for each of these molecules?
1. Cc1ccc2ccccc2c1CSc1nc(N)nc2c1ncn2CC(C)C
2. CC1(C)CCCCCC(O)C(O)CCC(C)(C)C1=O (configuration not stated)
3. CC(C)(C)OC(=O)N1C(=O)C2CCCC21 (configuration not stated)

stdout:
1: > 100 µM; 2: > 100 µM; 3: > 100 µM

Hi! Can you tell me TGI for each of these molecules?
1. COc1ccc(/C(=N/O)c2ccccc2C2=Nc3ccccc3C(NCc3ccccc3)O2)cc1C (configuration not stated)
2. COc1cc(C(c2ccccc2)N2C(=O)CC[C@H]2C(=O)O)cc(OC)c1OC (some centres not stated)
3. CCOP(=O)(OCC)/C(=C/n1c(=S)[nH]c2ccccc21)C(=O)OC

stdout:
> 100 µM
> 100 µM
> 100 µM

---

system: TK-10 renal; assay: NCI tumour cell line growth inhibition, 48 h
quantityMeasured: TGI (µM)
Give bare numbers, in µM.

Some entries whose results are on file:
[
  {
    "molecule": "CCC[CH2][Sn]1([CH2]CCC)[O]C(=O)c2cccc([N+](=O)[O-])c2C(=O)[O]1",
    "TGI [µM]": 0.805
  },
  {
    "molecule": "O=C1/C=C/[C@@H](O)[C@@H]2C[C@@H](O)C[C@H]2/C=C/CCC[C@H](CCO)O1",
    "TGI [µM]": 0.832
  },
  {
    "molecule": "NC(=Nc1ccccc1)N/N=C/c1c[nH]c2ccccc12",
    "TGI [µM]": 18.9
  }
]

Next up:
So the reported TGI for `Cc1ccc2sc3c(NCCCN)nc4ccccc4c3c(=O)c2c1` , on TK-10 renal, turned out to be 3.52

---

system: OVCAR-3 ovarian; test: NCI tumour cell line growth inhibition, 48 h
Could you please report measured TGI for the items listed next?

Some entries whose results are on file:
[
  {
    "compound": "CC1(C)OCC2OC(n3cnc4c(N)nc(Cl)nc43)C(OS(C)(=O)=O)C2O1 (stereo not given)",
    "measurementTarget": "OVCAR-3 ovarian",
    "resultValue": "> 100 µM"
  },
  {
    "compound": "COC(=O)N[C@@H]1C[C@H]2CC[C@]1(O[Si](C(C)C)(C(C)C)C(C)C)C(=O)C2",
    "measurementTarget": "OVCAR-3 ovarian",
    "resultValue": "39.7 µM"
  }
]

Hi! Can you tell me TGI for each of these compounds?
1. CC(C)OC1=C(CC2(C)OCCO2)C(=O)C12OCCO2
2. [N-]=[N+]=Nc1cc(=O)[nH]c2ccccc12
3. CC1=C(CCC(C)CO)O[C@H]2C[C@H]3[C@@H]4CC[C@H]5C[C@@H](O)CC[C@]5(C)[C@H]4CC(=O)[C@]3(C)[C@@H]12 (stereo not given in full)

stdout:
1: > 100 µM; 2: > 100 µM; 3: > 60.9 µM

---

tested on: MALME-3M melanoma; assay: NCI tumour cell line growth inhibition, 48 h; in the data active = GI50 below about 0.43 µM; inactive = the rest
// one of active, inactive, no free text

As a guide, the following entries are already answered.
[
  {
    "molecule": "COc1c(C(N)=O)cc(-c2ccc(Cl)cc2)cc1-c1ccc(S(N)(=O)=O)cc1",
    "classAssignment": "inactive"
  },
  {
    "molecule": "O=C1C=CC2C3C(=O)N(c4ccccc4)C(=O)C3C1N2Cc1ccccc1 (stereo not drawn)",
    "classAssignment": "inactive"
  },
  {
    "molecule": "CCN1CCN(C(=O)[C@]23CC[C@@H](C)[C@H](C)[C@@H]2C2=CC[C@@H]4[C@@]5(C)CCC(=O)C(C)(C)[C@@H]5CC[C@@]4(C)[C@]2(C)CC3)CC1",
    "classAssignment": "inactive"
  },
  {
    "molecule": "COC(=O)Nc1nc2ccc(C(=O)c3cccc(I)c3)cc2[nH]1",
    "classAssignment": "active"
  },
  {
    "molecule": "CCOC(=O)C1=C(Nc2ccc(OC)cc2)C(N)=NC1=N",
    "classAssignment": "inactive"
  }
]

stdin: Could you check what this test reported for `Cn1nc(C(F)(F)F)cc1-c1cc(Cl)c(OCc2ccc(Cl)cc2)c(-c2ccc(Cl)c(C(F)(F)F)c2)c1O` ?
stdout: inactive

stdin: Could you check what this test reported for `Cc1ccc2sc3c(NCCCN)nc4ccccc4c3c(=O)c2c1` ?
stdout: inactive

stdin: Could you check what this test reported for `O=C(Nc1cccc([N+](=O)[O-])c1)c1cccc(C(=O)Nc2cccc([N+](=O)[O-])c2)c1` ?
stdout: inactive

---

test system: SK-OV-3 ovarian; assay: NCI tumour cell line growth inhibition, 48 h
Could you please report measured TGI for the items listed next?

Hi! Can you tell me TGI for each of these compounds?
1. NS(=O)(=O)c1nnc(NS(=O)(=O)c2cccc3cccnc23)s1
2. COc1ccc(C(=O)/C=C/c2ccc(OCc3cccc(C(F)(F)F)c3)c(OC)c2)cc1OC
3. C[C@@H]1CC[C@@H]2[C@@H]1[C@H](OC(=O)/C=C/C1CCCCC1)[C@]1(C3CCCCC3)C[C@@H](OC(=O)CO)[C@@]2(C)O1
4. CCO/C=C\C12CCCC1NC(c1ccccc1)(c1ccccc1)O2 (stereo not given)
5. Cc1ccsc1C(NC(=O)c1ccccc1)c1cc(Cl)c2cccnc2c1O (stereo not given)
6. CCC(O)CCCCCCCCCCCCCCC(=O)O (stereo not given)
7. O=C(Nc1ccc(Br)cc1)C(=O)C(C(=O)c1ccc(Cl)c(Cl)c1)C1OC(=O)c2ccccc21 (stereo not given)

stdout:
1: > 100 µM; 2: > 1000 µM; 3: 27.7 µM; 4: > 100 µM; 5: 7.96 µM; 6: > 100 µM; 7: > 100 µM

---

tested on: UO-31 renal; assay: NCI tumour cell line growth inhibition, 48 h
quantityMeasured: TGI (µM)
Numbers only, in µM.

Some entries whose results are on file:
[
  {
    "compound": "CC12CCC(C1)C(C)(C)C2OC(=O)c1ccccc1N (configuration not stated)",
    "measurementTarget": "UO-31 renal",
    "TGI (µM)": 30.8
  },
  {
    "compound": "NS(=O)(=O)c1ccc(-n2nc3c(c2-c2cccs2)Cc2ccccc2-3)cc1",
    "measurementTarget": "UO-31 renal",
    "TGI (µM)": 24.6
  },
  {
    "compound": "CCOC(=O)c1sc2nc(SC)nc3c2c1NCN3C",
    "measurementTarget": "UO-31 renal",
    "TGI (µM)": 37.6
  }
]

Hi! Can you tell me TGI for each of these compounds?
1. Nc1ccc(C#Cc2ccccc2C#CCCCCO)cc1
2. Cc1ccsc1C(NC(=O)c1ccccc1)c1cc(Cl)c2cccnc2c1O (configuration not stated)
3. O=c1oc2ccccc2c(O)c1C(c1ccc(OCc2ccccc2)cc1)c1c(O)c2ccccc2oc1=O
4. NC1(c2cc3ccccc3s2)CCCCCC1

stdout:
30.5
2.51
52.5
28.1

So the reported TGI for CCC(=O)OCOc1ccc(/C=C2\CCC(CN(C)C)C2=O)cc1 (configuration not stated) , on UO-31 renal, turned out to be 19

---

Could you please report measured TGI for the items listed next?
tested on: SK-MEL-5 melanoma; test: NCI tumour cell line growth inhibition, 48 h

Some entries whose results are on file:
[
  {
    "molecule": "COc1cc(/C=C2\\[C@@H]3NC(Cc4c(OC)c(C)c(OC)c(OC)c43)C(=O)N2Cc2ccccc2)c(OC)c(C)c1OC",
    "TGI": "> 100 µM"
  },
  {
    "molecule": "Cc1cc(N(CCC#N)CCC#N)ccc1/C(N=Nc1ccc(C(=O)O)cc1)=N\\NC(=O)c1ccccc1",
    "TGI": "> 100 µM"
  },
  {
    "molecule": "CCCCCc1cc2cc3c(c(O)c2c(=O)[nH]1)C1(CCC3)C(=O)c2c(O)ccc(O)c2C1=O",
    "TGI": "> 100 µM"
  }
]

Next up:
The value of TGI measured for the molecule COc1cc2[nH]c3c(c2cc1OC)CCN[C@@]31CC[C@@]2(CC3c4c(cc(OC)c(O)c42)CCN3C)C[C@@H]1OC (some centres undefined) turned out to be 30.3 µM
